Attribute: %Inh
# Tested on: CAMK2B
# experimental-context: concentration: 1 μM, replicates: in singlicate; n = 1
Unit % implied. Number only.

API: value(readout=%Inh, system=CAMK2B) for record Fc1ccc(-c2nn3c(OCC(F)(F)F)cccc3c2-c2ccncc2)cc1 [GW514784] 0

Which %Inh is reported with CAMK2B for this entry: Cn1ccc2ncnc(Oc3ccc(NC(=O)Nc4ccncc4)c(Cl)c3)c21 ? 0

Provide value of %Inh for this record tested with CAMK2B: Cc1cn2c(=O)cc(N3CCOCC3)nc2n1Cc1cccc(Cl)c1Cl [GSK2334006] 0

GET /values?readout=%Inh&system=CAMK2B&item= Fc1ccc(-c2ncn(CCCN3CCOCC3)c2-c2cccnc2)cc1 [SB-211743] 0

What %Inh appears in the records for this compound with CAMK2B? C[C@@H](Oc1cc(-n2cnc3ccc(NC(=O)NC(C)(C)C)cc32)sc1C(N)=O)c1ccccc1Cl [GSK346294] 0

Hello, I am looking for reported %Inh with CAMK2B for CC(=O)Nc1ccc(COc2ccc(Nc3ccnc4cc(-c5ccccn5)ccc34)cc2)cc1.Cl [GW440148] . Could you help? 0

----------
# Test system: GRK4
# experimental-context: concentration: 1 μM, replicates: in singlicate; n = 1
Measured %Inh values are reported for all entries that follow.
Give the value in % but do not write % after it.

Example results:
Cc1c2ccc(N(C)c3ccnc(Nc4cccc(S(N)(=O)=O)c4)n3)cc2nn1Cc1ccccc1.Cl.Cl ... 21
NS(=O)(=O)c1cccc(-c2ccc3nccc(-c4cccc(S(N)(=O)=O)c4)c3c2)c1 ... 26
CCn1cnc2c(N)ncnc21 ... 0
CCc1ccnc(/C=C/c2n[nH]c3cc(Sc4ccccc4C(=O)NC)ccc23)c1 ... 2
COc1ccc(Nc2ncc(C#N)c(Nc3ccccc3C(N)=O)n2)cc1N1CCN(C)CC1.Cl ... 96
Cc1nnc(-c2ccc3occ(-c4ccc(C(C)O)cc4)c3c2)o1 (stereo not shown) ... 1

Please provide the recorded %Inh for O=C(Nc1cccc(-c2nn3ncccc3c2-c2ccnc(Nc3cccc(C(F)(F)F)c3)n2)c1)c1c(F)cccc1F , tested on GRK4. 2

----------
# Tested on: BTK
# experimental-context: concentration: 1 μM, replicates: in singlicate; n = 1
Examples of compounds with documented %Inh follow.
Answer format: numeric, % implied, no suffix.

COc1ccc(S(=O)(=O)NC2CCN(c3cc(C)nc(Nc4cccc(C#N)c4)n3)CC2)cc1.O=C(O)C(F)(F)F ... 0
N#Cc1ccc(-c2cc(-c3c[nH]nc3-c3ccccn3)ccn2)cc1 ... 0
COc1cc2ncn(-c3cc(OCc4sccc4Cl)c(C(N)=O)s3)c2cc1OC ... 0
COc1ccc(Nc2nccc(N3CCC(NC(=O)Nc4cccc(C(C)=O)c4)C3)n2)cc1 (stereo not drawn) ... 0
COc1cc2c(cc1OCCN1CCN(C)CC1)ncc1c3ccc(C#N)cc3[nH]c21 ... 0
CC(=O)Nc1ccc(COc2ccc(Nc3ccnc4cc(-c5ccccn5)ccc34)cc2)cc1.Cl ... 0

Return reported %Inh; argument: Cc1cccc(Cn2ccn3c(=O)cc(N4CCOCC4)nc23)c1 0

# query: %Inh of entry CN(C(=O)c1ccc(-c2cc(-c3c[nH]nc3-c3ccccn3)ccn2)cc1)C1CCOCC1 16

Suppose we examine the compound Cl.Nc1ncnc2occ(-c3ccc(NC(=O)Nc4cc(C(F)(F)F)ccc4F)cc3)c12 ; what %Inh value has been reported? 21

I'd like to know its %Inh. The compound in question is Fc1ccc(-c2nn3c(OCC(F)(F)F)cccc3c2-c2ccncc2)cc1 31

Which value of %Inh has been reported for CC(C)Oc1ccc2c(-c3ccnc(Nc4ccc(N5CCN(C)CC5)cc4)n3)cnn2n1 in the records? 20

Using the record for O=c1cc(N2CCOCC2)nc2n(Cc3cccc(Cl)c3Cl)c(C3CC3)nn12 , report its %Inh. 0

Give its %Inh value. Item: O=C(c1ccc(-c2cc(-c3c[nH]nc3-c3ccccn3)ccn2)cc1)N1CCOCC1 0

%Inh lookup needed for CC(C)(C)n1cnc2c(N)ncnc21 , thanks. 19

Reported %Inh, compound CCCCCc1nc2c(N)ncnc2n1CCCCC : ____ 0

What does the record list as %Inh for COc1ccc(CNC(=O)NC2CCN(c3ccnc(Nc4ccc(OC)cc4)n3)C2)cc1 (stereo not drawn) ? 12

Reported %Inh for O=C(NCCCN1CCOCC1)c1cccc(Nc2nccc(Nc3ccc(Oc4ccccc4)cc3)n2)c1 : what is it? 51

GET /values?readout=%Inh&item= COc1ccc(Nc2nccc(N3CCC(NC(=O)Nc4cc(C)ccc4C)C3)n2)cc1 (stereo not drawn) 0

----------
# Tested on: PLK1;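 also: kd values determined as follow-up on hits from a single-replicate KINOMEscan panel screen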
property-label: Kd

Form entry - test system: PLK1; read-out: Kd; molecule: O=C(NCCNc1ccnc(Nc2ccc(F)cc2)n1)Nc1ccccc1F [GSK1379880] > 10 µM

----------
# Tested on: ZAK
# experimental-context: concentration: 1 μM, replicates: in singlicate; n = 1
Given measured %Inh, output yes (1) if it is greater than or equal to 20% and no (0) if not.

Example results:
N#Cc1c(N2CCOCC2)sc(-c2ccn[nH]2)c1-c1ccc(Cl)cc1 ... no (0)
COc1cc2c(cc1OC[C@@H](O)CO)ncc1c3ccc(C#N)cc3[nH]c21 ... no (0)
O=C(Nc1cccc(-c2nn3ncccc3c2-c2ccnc(Nc3cccc(C(F)(F)F)c3)n2)c1)c1c(F)cccc1F [GSK299495] ... yes (1)
COCCNC(=O)c1ccc(-c2cc(C(=O)NC3CC3)cc(F)c2C)cc1 [GW868318] ... yes (1)

Can Cc1nnc(-c2ccc(C)c(-c3ccc(C(=O)Nc4ccc(NS(C)(=O)=O)cc4)cc3)c2)o1 [GW702865] be said to have %Inh at or above 20%? no (0)

Hello, I need to know if CCn1cnc2c(N)ncnc21 [GW345098] has measured %Inh not below 20%. Thanks! no (0)

Answer whether %Inh of COc1ccc(COc2cc(-n3cnc4ccccc43)sc2C(N)=O)cc1 [GSK1024304] is greater than or equal to 20%. no (0)

# bool: %Inh of COC(=O)Nc1nc2cc(Oc3ccc(NC(=O)Nc4cc(F)ccc4F)cc3)ccc2[nH]1.Cl [GW701424] >= 20% yes (1)

Hi team, for CSc1ccc(-c2cc3ncnc(SCC(=O)O)c3s2)cc1 , is the recorded %Inh at or above 20%? no (0)

Identify whether the reported %Inh of the following molecule is 20% or greater: COc1ccc(CNC(=O)NC2CCN(c3ccnc(Nc4ccc(OC)cc4)n3)C2)cc1 (stereo not shown) [GSK1379727] no (0)

Could you please find out whether [2H]C([2H])(c1cccc(C(F)(F)F)c1C)n1ccn2c(=O)nc(N3CCOCC3)cc12 [GSK2336394] has %Inh that meets 20% or exceeds it? no (0)

Record Cc1cccc(Cn2ccn3c(=O)cc(N4CCOCC4)nc23)c1 [GSK2297542] ; criterion: %Inh no lower than 20%. Met? no (0)

Is it the case that O=C(Nc1n[nH]c2cc(-c3cccc(F)c3)ccc12)C1CC1 [SB-735464] has %Inh reaching or exceeding 20%? no (0)

In plain terms: is recorded %Inh at least 20% for O=c1cc(N2CCOCC2)nc2n(Cc3cccc4ccccc34)ccn12 [GSK2333389] ? no (0)

For this molecule, is measured %Inh 20% or higher? CN(C1=C(c2ccccc2)C(=O)NC1=O)c1ccccc1 [SB-334860] yes (1)

For this molecule, is measured %Inh 20% or higher? O=c1cc(N2CCOCC2)nc2n(Cc3cccc(F)c3)ccn12 [GSK2297430] no (0)

Decide: %Inh of Fc1ccc(-c2ncn(CCCN3CCOCC3)c2-c2cccnc2)cc1 [SB-211743] >= 20%? no (0)

API: above_or_equal(metric=%Inh, cutoff=20%) for item O=C(c1ccc(-c2cc(-c3c[nH]nc3-c3ccccn3)ccn2)cc1)N1CCOCC1 [GW812171] yes (1)

Determine whether this molecule has %Inh no lower than 20%: COc1ccc(Nc2ncc(C#N)c(Nc3ccccc3C(N)=O)n2)cc1N1CCN(C)CC1.Cl [GSK1558669] yes (1)

----------
# Tested on: MUSK
# experimental-context: concentration: 1 μM, replicates: in singlicate; n = 1
property-label: %Inh
Report the figure along with its unit, number first.

Cc1nnc(-c2ccc3ncc(-c4ccc(S(C)=O)cc4)n3c2)o1 (centres unmarked) ... 0%
O=C(NCCNc1ccnc(Nc2ccc(F)cc2)n1)Nc1ccccc1F ... 5%
O=c1cc(N2CCOCC2)nc2n(Cc3cccc(Cl)c3Cl)c(C3CC3)nn12 ... 0%

Item COc1ccc(CNC(=O)NC2CCN(c3ccnc(Nc4ccc(OC)cc4)n3)C2)cc1 (centres unmarked) has what recorded %Inh? 7%

If you can, please state the reported %Inh value of Cc1cn2c(=O)cc(N3CCOCC3)nc2n1Cc1cccc(Cl)c1Cl . 27%

I am curious: what %Inh value has been reported for NCC(NC(=O)c1cc(-c2cn[nH]c2)c(-c2ccnc3[nH]ccc23)s1)c1ccccc1.O=C(O)C(F)(F)F.O=C(O)C(F)(F)F (centres unmarked) ? 0%

I am curious: what %Inh value has been reported for CCc1ccnc(/C=C/c2n[nH]c3cc(Sc4ccccc4C(=O)NC)ccc23)c1 ? 0%

Give the measured %Inh of NS(=O)(=O)CCc1cccc(Nc2nccc(-c3c(-c4cccc(NC(=O)c5c(F)cccc5F)c4)nn4ccccc34)n2)c1 . 40%
